test system: maize (Zea mays) r1-colored1 gene; test: HDR editing of an endogenous gene in maize protoplasts (RNP + dsDNA donor template, MiSeq sequencing); format: cell-based; design: unit not given here; details: hypoxic conditions; 5 μM compound, 0.1% DMSO; B104 maize protoplasts; 48 hours at 26 degrees Celsius in the dark; average of triplicate samples
Classify as follows. Reported Hypoxia Avg. (HDR) greater than or equal to 5: yes. Reported Hypoxia Avg. (HDR) below: no.

Use these answered entries as a reference point.
> print(dat)
                                   compound  label
1         CC(C)Cn1c(=O)n(C)c(=O)c2nc[nH]c21     no
2  Nc1nccc(-c2ccc3noc(-c4ccc(Cl)cc4)c3c2)n1    yes

Read the next record carefully.
Incoming: Given the entry Cc1ccc(C(=O)N(CCCN)[C@@H](c2oc3cc(Cl)ccc3c(=O)c2Cc2ccccc2)C(C)C)cc1.Cl [SB 743921 Hydrochloride] , answer whether its Hypoxia Avg. (HDR) meets or surpasses 5.
Outgoing: no
